- tested-target: PDGFRα(h) (Homo sapiens, UniProt P16234)
- Sequence (P16234 24-1089): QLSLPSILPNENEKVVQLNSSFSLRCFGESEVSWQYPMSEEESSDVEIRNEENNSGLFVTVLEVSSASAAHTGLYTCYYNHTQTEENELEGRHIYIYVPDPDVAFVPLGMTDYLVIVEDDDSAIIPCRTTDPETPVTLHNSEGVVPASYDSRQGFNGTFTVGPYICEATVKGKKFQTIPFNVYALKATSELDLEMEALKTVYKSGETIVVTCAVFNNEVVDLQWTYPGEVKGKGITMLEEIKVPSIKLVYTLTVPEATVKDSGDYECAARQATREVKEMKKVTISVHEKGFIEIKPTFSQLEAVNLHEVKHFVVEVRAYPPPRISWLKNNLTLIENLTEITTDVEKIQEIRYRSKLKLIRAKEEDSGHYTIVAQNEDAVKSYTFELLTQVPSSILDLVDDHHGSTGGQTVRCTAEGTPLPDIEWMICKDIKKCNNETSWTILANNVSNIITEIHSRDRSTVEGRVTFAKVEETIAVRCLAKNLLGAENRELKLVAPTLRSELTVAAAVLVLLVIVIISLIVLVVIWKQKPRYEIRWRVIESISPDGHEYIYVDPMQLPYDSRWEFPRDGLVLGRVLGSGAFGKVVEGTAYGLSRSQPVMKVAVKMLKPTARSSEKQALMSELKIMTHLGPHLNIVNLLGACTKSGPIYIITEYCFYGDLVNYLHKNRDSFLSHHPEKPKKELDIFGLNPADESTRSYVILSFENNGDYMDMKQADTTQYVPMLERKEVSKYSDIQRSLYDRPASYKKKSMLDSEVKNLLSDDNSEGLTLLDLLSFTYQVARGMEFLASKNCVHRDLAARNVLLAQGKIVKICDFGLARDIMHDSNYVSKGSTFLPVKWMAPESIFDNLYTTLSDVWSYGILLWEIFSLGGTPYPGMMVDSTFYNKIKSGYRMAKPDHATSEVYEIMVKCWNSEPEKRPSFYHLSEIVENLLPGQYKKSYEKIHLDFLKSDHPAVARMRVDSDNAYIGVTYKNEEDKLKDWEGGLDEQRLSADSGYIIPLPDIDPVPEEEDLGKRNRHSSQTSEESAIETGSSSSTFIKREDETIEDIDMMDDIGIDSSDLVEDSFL
- procedure-text: Kinase Profiling Assay
- Type: biochemical
- test-context: 100 μM peptide
This section presents sequences with their documented PDGFRα(h) % activity values.

| seq-string | tested-target | PDGFRα(h) % activity |
| --- | --- | --- |
| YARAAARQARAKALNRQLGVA (Mammalian) [MMI-0200] | PDGFRα(h) (Homo sapiens, UniProt P16234) | 108% |
| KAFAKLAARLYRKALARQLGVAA [MMI-0400] | PDGFRα(h) (Homo sapiens, UniProt P16234) | 40% |
| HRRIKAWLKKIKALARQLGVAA (Mammalian) [MMI-0500] | PDGFRα(h) (Homo sapiens, UniProt P16234) | 40% |
| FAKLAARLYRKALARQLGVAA [MMI-0300] | PDGFRα(h) (Homo sapiens, UniProt P16234) | 65% |
